Source listed as the supplement of paper PMC11061612.

Kindly supply the reported Bliss excess values for the records listed here.
Test system: MS-1 (Small Cell Lung Carcinoma)
Assay: Bliss excess, mean over the matrix (fraction); higher = more synergy;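 also: after 72 h of two-drug dosing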

In: Provide one value: measured Bliss excess of CC1(C)CCC(CN2CCN(c3ccc(C(=O)NS(=O)(=O)c4ccc(NCC5CCOCC5)c([N+](=O)[O-])c4)c(Oc4cnc5[nH]ccc5c4)c3)CC2)=C(c2ccc(Cl)cc2)C1 [Venetoclax] + CCN(CCO)CCCOc1ccc2c(Nc3cc(CC(=O)Nc4cccc(F)c4)[nH]n3)ncnc2c1 [AZD2811] (first compound max 1 µM, 7x7, partner max 1 µM)
Out: -0.045

In: Supply measured Bliss excess of O=C(c1cc(Cc2n[nH]c(=O)c3ccccc23)ccc1F)N1CCN(C(=O)C2CC2)CC1 [Olaparib] + Cc1c2c(nn1C)CSCc1cc(n(C)n1)CSc1cc(c3ccccc3c1)OCCCc1c(C(=O)O)n(C)c3c-2c(Cl)ccc13 [AZD5991] (first compound max 10 µM, 7x7, partner max 1 µM) in your reply.
Out: -0.0481

====

System: LS-1034 (Colorectal Carcinoma)
Assay: Bliss excess, mean over the matrix (fraction); higher = more synergy
value type: Bliss excess
Please reply with the value in numeric form only.

In: For the compound COc1cccc(OCCCN)c1-c1cc(Nc2cnc(C#N)cn2)n[nH]1 [Prexasertib] + O=C(c1cc(Cc2n[nH]c(=O)c3ccccc23)ccc1F)N1CCN(C(=O)C2CC2)CC1 [Olaparib] (first compound max 1 µM, 7x7, partner max 10 µM) , give its measured Bliss excess value.
Out: -0.027

In: Return reported Bliss excess. Input compound: NC1(C(=O)N[C@@H](CCO)c2ccc(Cl)cc2)CCN(c2ncnc3[nH]ccc23)CC1 [Capivasertib] + C[C@@H]1COCCN1C2=NC(=NC(=C2)C3(CC3)[S@](=N)(=O)C)C4=C5C=CNC5=NC=C4 [AZD6738] (first compound max 10 µM, 7x7, partner max 10 µM)
Out: -0.0782

In: For the compound C[C@@H](Oc1cc(-c2cnn(C3CCNCC3)c2)cnc1N)c1c(Cl)ccc(F)c1Cl [Crizotinib] + Cn1cnc2c(F)c(Nc3ccc(Br)cc3Cl)c(C(=O)NOCCO)cc21 [Selumetinib] (first compound max 10 µM, 7x7, partner max 10 µM) , give its reported Bliss excess.
Out: -0.0843

In: Hello, please tell me recorded Bliss excess for this one: Cc1c2c(nn1C)CSCc1cc(n(C)n1)CSc1cc(c3ccccc3c1)OCCCc1c(C(=O)O)n(C)c3c-2c(Cl)ccc13 [AZD5991] + C=CCn1c(=O)c2cnc(Nc3ccc(N4CCN(C)CC4)cc3)nc2n1-c1cccc(C(C)(C)O)n1 [AZD1775] (first compound max 1 µM, partner max 1 µM)
Out: -0.098

====

System: AM-38 (Glioblastoma)
Assay: Bliss excess, mean over the matrix (fraction); higher = more synergy
Provide the reported Bliss excess of each item.
Answer using only a numeral; do not append any unit.

In: Give recorded Bliss excess. CN(CCO)CC[C@H](CSc1ccccc1)Nc1ccc(S(=O)(=O)NC(=O)c2ccc(N3CCC([C@@H](O)c4ccccc4-c4ccc(Cl)cc4)CC3)cc2)cc1S(=O)(=O)C(F)(F)F [AZD4320] + Cn1cnc2c(F)c(Nc3ccc(Br)cc3Cl)c(C(=O)NOCCO)cc21 [Selumetinib] (first compound max 1 µM, 7x7, partner max 3 µM)
Out: 0.0746

In: Give the value of Bliss excess reported for the following: Cn1cnc2c(F)c(Nc3ccc(Br)cc3Cl)c(C(=O)NOCCO)cc21 [Selumetinib] + CC(C)n1c(=O)n(C)c2cnc3cc(F)c(-c4ccc(OCCCN5CCCCC5)nc4)cc3c21 [AZD1390] (first compound max 10 µM, 7x7, partner max 0.3 µM)
Out: -0.0389

In: Identify measured Bliss excess associated with CN(C)CCCOc1ccc(-c2ccc3ncc4c(c3c2)n(C2CCOCC2)c(=O)n4C)cn1 [AZD0156] + C[C@@H]1COCCN1C2=NC(=NC(=C2)C3(CC3)[S@](=N)(=O)C)C4=C5C=CNC5=NC=C4 [AZD6738] (first compound max 1 µM, 7x7, partner max 10 µM)
Out: 0.0677
